src = patent US20210347914A1

Attribute: koff
biological target: T1, Polyhistidine-tagged recombinant human UCH-L1 expressed from E. coli (human, UniProt P09936 1-223, limits assumed); experiment: BLI (Octet QKe); His-tagged UCH-L1 on anti-Penta-HIS sensor, antibody in solution
T1 construct: also called UCH-L1-His; not shown: polyhistidine tag
T1 sequence (P09936 whole entry): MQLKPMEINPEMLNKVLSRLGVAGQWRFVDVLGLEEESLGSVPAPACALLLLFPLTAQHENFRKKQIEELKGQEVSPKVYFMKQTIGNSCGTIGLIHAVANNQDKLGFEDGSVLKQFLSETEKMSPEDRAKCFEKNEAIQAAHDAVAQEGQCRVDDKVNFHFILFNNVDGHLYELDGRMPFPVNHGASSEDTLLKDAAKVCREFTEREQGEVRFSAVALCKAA

Binder: UCH-L1-10 (antibody, V domains shown, also called mouse anti-UCH-L1 antibody UCH-L1-10) VH: EVQLQQSGPDLVKPGTSVKISCKTSGYTFTEYTMHWVKQSHGRSLEWIGGFNPNNGRTSYNQKFKGKATLTVDKSSSTAYMELRSLTSEDSAVYYCSRRLYRGFYFDYWGQGTTLTVSS VL: DIVLTQSPASLAVSLGQRATISCRASESVDSYGNNLMHWYQQKPGQSPKLLIYRASNLESGIPGRFSGRGSRTDFSLTINPVEADDVATYYCQQSNGDPYTFGGGTKLEIK
koff [s⁻¹]: 4.6e-06
//
Binder: UCH-L1-8 (antibody, V domains shown, also called mouse anti-UCH-L1 antibody UCH-L1-8) VH: EVQLQQSGPDLVKPGTSVKISCKTSGYTFTEYTMHWVKQSHGRSLEWIGGLNPNNGRTSYNQKFKGKATLTVDKSSSIAYMELRSLTSEDSAVYYCARRLGRGFYFDYWGQGTTLTVSS VL: DIVLTQSPASLAVSLGQRATISCRASESVDSYGNNLMHWYQQKPGQSPKLLIYRASNLESGIPGRFSGRGSRTDFTLTINPVEADDVATYYCQQSNGDPYTFGGGTKLEIK
koff [s⁻¹]: 6.7e-06
//
Binder: UCH-L1-7 (antibody, V domains shown, also called mouse anti-UCH-L1 antibody UCH-L1-7) VH: EVQLQQSGPELVKPGASVKISCKTSGYTFTEYTMHWVKQSHGKSLDWIGGINPNNGRTSYNQKFKGKATLTVDKSSSTAYMELRSLTSEDSAVYYCARRLGRGFYFDYWGQGTTLTVSS VL: DIVLTQSPASLAVSLGQRATISCRASESVDSYGNNLMHWYQQKPGQPPKLLIYLSSNLESGIPARFSGRGSRTDFTLTINPVEADDVATYYCQQSNGDPYTFGGGTKLEIK
koff [s⁻¹]: 2.5e-06
//
Binder: UCH-L1-2 (antibody, V domains shown, also called mouse anti-UCH-L1 antibody UCH-L1-2) VH: EVMLVESGGGLVKPGGSLKLSCAASGFIFSSHAMSWIRQIPEKRLEWVATISSGGSNTYYPDSVKGRFTISRDNAKNILYLQMSSLRSEDTAIYYCTRHGEVRRGYYFDYWGQGTTLTVSS VL: DIQMTQTPSSLSASLGDRVTISCSASQGITNYLNWYQQKPDGTVKLLIYYTSSLHSGVPSRFSGSGSGTDYSLTISNLEPEDFATYYCQHYSNLPWTFGGGTKLEIK
koff [s⁻¹]: 3.01e-05
//
Binder: UCH-L1-6 (antibody, V domains shown, also called mouse anti-UCH-L1 antibody UCH-L1-6) VH: EVQLQQSGPELVKPGASVKISCKTSGYTFTEYTMHWVKQSHGKSLDWIGGINPNNGRTSYNQKFKGKATLTVDKSSSTAYMDFRSLTSEDSAVYYCARRLGRGFYFDYWGQGTTLTVSS VL: DIVLTQSPASLAVSLGQRATISCRASESVESYGNNLIHWYQQKLGQPPKLLIYLSSNLEPGIPARFSGRGSRTDFTLTINPVEADDVATYYCQQSNGDPYTFGGGTKLEIR
koff [s⁻¹]: 1e-07
//
Binder: UCH-L1-3 (antibody, V domains shown, also called mouse anti-UCH-L1 antibody UCH-L1-3) VH: QVQLQQPGSELVRPGASVKLSCRASGYTFTSYWIHWVKQRHGQGLEWIGNIYPGSGITNYDEKFKTKGTLTVDTSSSTVYMHLISLTSEDSAVYYCTREDYWGQGTTLTVSS VL: DVLMTQTPLSLPVSLGDQASISCRSSQSIVHSNGNTYLEWYLQKPGQSPKLLIYKVSNRFSGVPDRFSGSGSGTDFTLKISGVETEDLGVYYCFQGSHVPFTFGGGTKLEIK
koff [s⁻¹]: 1.34e-05
